Ribosomal protein S6 kinase beta-1 (Homo sapiens, UniProt P23443) IC50, compiled from various sources.
Sequence (P23443 whole entry): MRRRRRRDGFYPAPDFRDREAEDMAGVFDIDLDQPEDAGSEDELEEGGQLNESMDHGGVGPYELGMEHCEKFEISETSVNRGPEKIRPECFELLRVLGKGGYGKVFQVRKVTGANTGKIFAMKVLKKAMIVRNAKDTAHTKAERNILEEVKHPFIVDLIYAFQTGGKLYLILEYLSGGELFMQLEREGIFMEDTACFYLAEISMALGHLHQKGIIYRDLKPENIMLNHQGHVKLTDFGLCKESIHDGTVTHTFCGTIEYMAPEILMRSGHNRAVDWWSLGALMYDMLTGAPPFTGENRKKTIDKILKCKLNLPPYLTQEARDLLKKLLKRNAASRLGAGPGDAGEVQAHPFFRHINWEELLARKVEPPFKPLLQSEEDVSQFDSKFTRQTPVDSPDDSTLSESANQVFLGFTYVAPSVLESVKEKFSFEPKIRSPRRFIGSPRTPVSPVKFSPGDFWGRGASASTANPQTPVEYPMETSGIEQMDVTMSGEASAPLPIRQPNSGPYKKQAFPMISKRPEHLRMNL
measured_quantity: IC50 (µM)

> print(dat)
                                   molecule  measured.quantity  experimental.result
1  COc1ccc2c(c1)CC(C(=O)Nc1cc(F)c(-c3cn[nH]c3)c(F)c1)CO2 (stereo not given)               IC50               0.0567

P = COc1cc2c(Oc3ccc(-c4cnc(Cc5ccccc5)n(C)c4=O)cc3F)ccnc2cc1OCCCN1CCOCC1
Q = CCn1c(-c2nonc2N)nc2cnccc21
R = COc1cc2c(Oc3ccc(-c4cnc(Nc5ccc(F)cc5)n(C)c4=O)nc3)ccnc2cc1OCCCN1CCOCC1
Which order do these items take when sorted by rising IC50? List them. API: response body holds the labels in the requested order.
Q, P, R
(Q: 0.07 µM, P: 10 µM, R: 65 µM)
